system: HOP-92; assay: NCI tumour cell line growth inhibition, 48 h
Calls of active or inactive are those of the source. Cut-off read from the data, not from the text of the source: active = GI50 up to about 1.1 µM and inactive = higher.
Observable: GI50

>>> meas_value("COc1ccc(S(=O)(=O)N/N=C/C(=O)O)cc1")
"364 µM (inactive)"

Dear colleague, could you please provide GI50 for the compounds listed below?
1. Cc1cc(C)c2c(n1)S(=O)(=O)N(CCCN1CCN(c3cccc(C(F)(F)F)c3)CC1)C(C(=O)c1ccc(Cl)cc1)=C2O
2. O=C(CN1CCN(c2cccc(Cl)c2)CC1)N1CCc2c([nH]c3ccccc23)C1c1cccnc1 (centres undefined)
3. CN(CC(=O)O)c1ncc2c(n1)-c1ccccc1SC2

Response line:
1. 2.5 µM (inactive)
2. 12.8 µM (inactive)
3. > 100 µM (inactive)

Dear colleague, could you please provide GI50 for the compounds listed below?
1. CN(C1=NS(=O)(=O)N=C(N(C)c2ccccc2)O1)c1ccccc1
2. COC(=O)c1ccccc1CC1Cc2cc3c(cc2C1=O)CCC3 (centres undefined)
3. N#Cc1ccc(OCc2nc3cc(C(F)(F)F)ccc3nc2-c2ccccc2)cc1

Response line:
23.6 µM (inactive)
13.7 µM (inactive)
> 100 µM (inactive)

Dear colleague, could you please provide GI50 for the compounds listed below?
1. Cc1nc2ccc(NCCN(C)C)c3c(=O)c4ccccc4n1c23
2. CC1OC2/C=C\CC(O)C(C)(C)C3CCC(C)C4(O3)O[B-]35OC(C(=O)OC1C2)C1(OC(CCC1C)C(C)(C)C(O)C/C=C\C1CC(OC(=O)C4O3)C(C)O1)O5 (centres undefined)

Response line:
1. 2.25 µM (inactive)
2. 2.94 µM (inactive)
